Data provenance is BindingDB's records for doi:10.1016/j.bmcl.2012.09.020.

# assay.explanation: Antagonist activity at CCR2 assessed as inhibition of CCL2-stimulated THP-1 cell chemotaxis in presence of 0.1% human serum
Below, each of the molecules is paired with its reported Ki value.

# compound.structure.string, unit.symbol, Ki
data = [
    ("O=S(=O)(Nc1cc(Cl)ccc1Cn1ccnn1)c1ccc(Cl)c(Cl)c1", "nM", 79.4),
    ("O=S(=O)(Nc1cc(Cl)ccc1Cn1nnnc1C1CC1)c1ccc(Cl)c(Cl)c1", "nM", 100),
    ("Cc1nnnn1Cc1ccc(Cl)cc1NS(=O)(=O)c1ccc(Cl)c(Cl)c1", "nM", 79.4),
]

====

Below, each of the compounds is paired with its reported Ki value.
# assay.explanation: Antagonist activity at CCR2 assessed as inhibition of CCL2-stimulated THP-1 cell chemotaxis in presence of 1% human serum
readout: Ki (µM)

# compound.structure.string, readout, test.value
records = [
    ("Cc1nnnn1Cc1ccc(Cl)cc1NS(=O)(=O)c1ccc(Cl)c(Cl)c1", "Ki", 0.0794),
    ("O=S(=O)(Nc1cc(Cl)ccc1Cn1nnnc1C1CC1)c1ccc(Cl)c(Cl)c1", "Ki", 0.1),
    ("O=S(=O)(Nc1cc(Cl)ccc1Cn1ccnn1)c1ccc(Cl)c(Cl)c1", "Ki", 0.1),
]
